FYI, the data here is from the supplement of paper PMC13380429.

System: U2OS
Assay: cell viability relative to DMSO; higher = less toxic
Conditions: 72 h; 1000 nM
Record form. Attribute: cell viability. Fill in for each entry.
Number first, unit second: that is the form wanted.

compound: CCC(C)CCCC(=O)N[C@@H](CCN)C(=O)N[C@H](C(=O)N[C@@H](CCN)C(=O)N[C@H]1CCNC(=O)[C@H]([C@@H](C)O)NC(=O)[C@H](CCN)NC(=O)[C@H](CCN)NC(=O)[C@H](CC(C)C)NC(=O)[C@@H](CC(C)C)NC(=O)[C@H](CCN)NC1=O)[C@@H](C)O (stereo partly drawn) [colistin]
cell viability: 103%
//
compound: FC(F)(F)c1ccc(N2CCNCC2)nc1Cl
cell viability: 100%
//
compound: CC(C)(Oc1ccc(C(=O)c2ccc(Cl)cc2)cc1)C(=O)O [fenofibric-acid]
cell viability: 100%
//
compound: COc1ccc2cc(CCC(C)=O)ccc2c1 [nabumetone]
cell viability: 93.3%
//
compound: Cn1cc(/C=C2\C(=O)Nc3cccnc32)c2ccccc21
cell viability: 101%
//
compound: CC(=O)c1ccc2c(c1)N(CCCN(C)C)c1ccccc1S2 [acepromazine]
cell viability: 93.9%
//
compound: COc1cccc(C(=O)CCN[C@@H](C)[C@H](O)c2ccccc2)c1 [oxyfedrine]
cell viability: 99.9%

Moving on to the next compound.
Notebook: O=C(O)CCCO [SODIUM OXYBATE] , cell viability read as 96.4%
